# TARGET ENTITY: recombinant human 5-HT4 receptor (Homo sapiens (Human), UniProt Q13639)
# Sequence (Q13639 whole entry): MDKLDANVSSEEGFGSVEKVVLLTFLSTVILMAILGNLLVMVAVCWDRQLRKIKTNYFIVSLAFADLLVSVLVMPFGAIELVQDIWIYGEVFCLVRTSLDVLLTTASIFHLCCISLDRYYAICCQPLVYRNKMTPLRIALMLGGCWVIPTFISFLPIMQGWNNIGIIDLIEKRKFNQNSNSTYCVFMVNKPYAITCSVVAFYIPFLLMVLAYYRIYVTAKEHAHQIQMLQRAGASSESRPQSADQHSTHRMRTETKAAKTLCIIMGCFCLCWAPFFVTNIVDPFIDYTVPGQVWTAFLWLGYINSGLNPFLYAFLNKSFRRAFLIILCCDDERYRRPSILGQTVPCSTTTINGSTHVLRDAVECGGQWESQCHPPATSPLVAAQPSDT
# TEST: Determination of EC50 values for 5-HT4 receptor (CHO cells, pCRE-Luc reporter)
# MEASUREMENT CONTEXT: CHO cells expressing human 5-HT4 receptor, luciferase activity, 4 hours incubation
Where a name gives a salt, the structure may show the parent alone.
READOUT: EC50
Don't forget the unit after the number, please.

// worked examples, EC50 included
{"COMPOUND": "Nc1c(Cl)cc(-c2nnc(C3CCN(C4CCOCC4)CC3)o2)c2c1CCO2 [Example 7, oxalate salt]", "TARGET ENTITY": "recombinant human 5-HT4 receptor (Homo sapiens (Human), UniProt Q13639)", "READOUT": "EC50", "OBSERVED MEASUREMENT": "7 nM"}
{"COMPOUND": "Nc1c(Cl)cc(-c2nnc(C3CCN(C4CC4)CC3)o2)c2c1CCCO2.Nc1c(Cl)cc(-c2nnc(C3CCN(C4CC4)CC3)o2)c2c1CCCO2.O=C(O)/C=C/C(=O)O", "TARGET ENTITY": "recombinant human 5-HT4 receptor (Homo sapiens (Human), UniProt Q13639)", "READOUT": "EC50", "OBSERVED MEASUREMENT": "28.5 nM"}

Alright, here's another compound for you.
Looking up CCOC(=O)N1CCC(N2CCC(c3nnc(-c4cc(Cl)c(N)c5c4OCC5)o3)CC2)CC1 [Example 34, oxalate] , I see its EC50 listed as 5 nM

* * *

# TEST: Rodent pharmacokinetic study
# Format: in vivo, Male Wister rats
# MEASUREMENT CONTEXT: male, Wistar, rat, plasma, po, 10 mg/kg
READOUT: Tmax (min)
Only the number, expressed in min, is required.

Looking up Nc1c(Cl)cc(-c2nnc(CC3CCN(C4CCCC4)CC3)o2)c2c1CCCO2.O=C(O)C(=O)O , I see its Tmax listed as 25.2

* * *

# TARGET ENTITY: recombinant human 5-HT4 receptor (Homo sapiens (Human), UniProt Q13639)
# TEST: Determination of EC50 values for 5-HT4 receptor (CHO cells, pCRE-Luc reporter)
# MEASUREMENT CONTEXT: CHO cells expressing human 5-HT4 receptor, luciferase activity, 4 hours incubation
pEC50: −log10 of the molar value.
Could you label it true if measured pEC50 is 8 or higher, and false otherwise?

For orientation, consider the following solved cases.
{"COMPOUND": "Nc1c(Cl)cc(-c2nnc(C3C4CN(CC5CC5)CC43)o2)c2c1CCCO2 (centres unmarked) [Example 24]", "ASSIGNED CATEGORY": "false"}
{"COMPOUND": "Nc1c(Cl)cc(-c2nnc(CCN3CCCCC3)o2)c2c1CCCO2 [Example 18]", "ASSIGNED CATEGORY": "false"}
{"COMPOUND": "Nc1c(Cl)cc(-c2nnc(C3CCN(C4CCOCC4)CC3)o2)c2c1CCCO2.O=C(O)C(=O)O [Example 25, oxalate salt]", "ASSIGNED CATEGORY": "true"}

pEC50 >= 8 for Nc1c(Cl)cc(-c2nnc(C3CCN(C4CCC4)CC3)o2)c2c1CCCO2 [Example 14] ?
true

pEC50 >= 8 for Nc1c(Cl)cc(-c2nnc(C3CCN(CC4CCC4)CC3)o2)c2c1CCCO2 [Example 10] ?
true

* * *

// values below are reported Tmax
# TEST: Rodent pharmacokinetic study
# Type: in vivo, Male Wister rats
# MEASUREMENT CONTEXT: plasma; Wistar/Male rat, 10 mg/kg, oral (gavage)
Only the number, expressed in min, is required.

// worked examples, Tmax included
{"SAMPLE SMILES": "Nc1c(Cl)cc(-c2nnc(CCCN3CCCCC3)o2)c2c1CCCO2.O=C(O)C(O)C(O)C(=O)O", "OBSERVED MEASUREMENT": 15}
{"SAMPLE SMILES": "CC(C)n1nc(-c2nnc(C3CCN(CC4CC4)CC3)o2)c2ccccc21", "OBSERVED MEASUREMENT": 25.2}

Alright, here's another compound for you.
Looking up COCCCN1CCC(c2nnc(-c3nn(C(C)C)c4ccccc34)o2)CC1.O=C(O)C(=O)O , I see its Tmax listed as 25.2

* * *

# TARGET ENTITY: recombinant human 5-HT4 receptor (Homo sapiens (Human))
# TEST: Determination of EC50 values for 5-HT4 receptor (CHO cells, pCRE-Luc reporter)
# MEASUREMENT CONTEXT: CHO cells expressing human 5-HT4 receptor, luciferase activity, 4 hours incubation
// values below are reported pEC50
Please express pEC50 as -log10 of the molar concentration.

# lookup: Nc1c(Cl)cc(-c2nnc(CCCN3CCCCC3)o2)c2c1CCCO2.O=C(O)C(O)C(O)C(=O)O [Example 20] on recombinant human 5-HT4 receptor (Homo sapiens (Human)), pEC50 = 6.98

* * *

// values below are reported EC50
# TARGET ENTITY: recombinant human 5-HT4 receptor (Homo sapiens (Human), UniProt Q13639)
# TEST: Determination of EC50 values for 5-HT4 receptor (CHO cells, pCRE-Luc reporter)
# MEASUREMENT CONTEXT: CHO cells expressing human 5-HT4 receptor, luciferase activity, 4 hours incubation
Counter-ions that a name gives are not always drawn.

// worked examples, EC50 included
{"COMPOUND": "Nc1c(Cl)cc(-c2nnc(C3CCN(CC4CC4)CC3)o2)c2c1CCCO2", "READOUT": "EC50", "OBSERVED MEASUREMENT": "10.2 nM"}
{"COMPOUND": "Nc1c(Cl)cc(-c2nnc(C3CCN(CC4CCC4)CC3)o2)c2c1OCCO2", "READOUT": "EC50", "OBSERVED MEASUREMENT": "6.2 nM"}

Looking up Nc1c(Cl)cc(-c2nnc(C3CCN(C4CCC4)CC3)o2)c2c1CCO2 [Example 28, oxalate salt] , I see its EC50 listed as 10 nM

* * *

# TARGET ENTITY: recombinant human 5-HT4 receptor (Homo sapiens (Human))
# TEST: Determination of EC50 values for 5-HT4 receptor (CHO cells, pCRE-Luc reporter)
# MEASUREMENT CONTEXT: CHO cells expressing human 5-HT4 receptor, luciferase activity, 4 hours incubation
// values below are reported EC50
Only the number, expressed in nM, is required.

// worked examples, EC50 included
{"COMPOUND": "CC(C)CCN1CCC(c2nnc(-c3cc(Cl)c(N)c4c3OCCC4)o2)CC1 [Example 9]", "EC50 [nM]": 2.4}
{"COMPOUND": "Nc1c(Cl)cc(-c2nnc(CC3CCN(C4CCCC4)CC3)o2)c2c1CCCO2.O=C(O)C(=O)O [Example 21, oxalate salt]", "EC50 [nM]": 71.2}

Looking up COCCN1CCC(c2nnc(-c3cc(Cl)c(N)c4c3OCCC4)o2)CC1 [Example 8] , I see its EC50 listed as 15.6
